Below, each entry is listed with its recorded pIC50.
biological target: Mitogen-activated protein kinase 3 (Homo sapiens); experiment: Inhibition of human Erk1
Sequence (P27361 whole entry): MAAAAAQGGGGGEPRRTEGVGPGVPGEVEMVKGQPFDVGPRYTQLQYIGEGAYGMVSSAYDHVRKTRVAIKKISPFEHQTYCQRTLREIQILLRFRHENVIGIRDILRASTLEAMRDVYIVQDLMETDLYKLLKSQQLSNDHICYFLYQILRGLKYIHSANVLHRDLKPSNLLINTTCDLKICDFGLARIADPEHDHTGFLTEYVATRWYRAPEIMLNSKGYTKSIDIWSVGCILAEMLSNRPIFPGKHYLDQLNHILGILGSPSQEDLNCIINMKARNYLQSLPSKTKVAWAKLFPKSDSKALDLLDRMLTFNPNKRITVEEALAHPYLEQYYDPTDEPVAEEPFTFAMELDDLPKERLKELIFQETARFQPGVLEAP
pIC50: −log10 of the molar value.

O=C1Nc2cc(F)ccc2CN1c1csc(-c2ccncc2)n1 = < 5.00

pIC50 lookup needed for O=C1Nc2ccccc2CN1c1csc(-c2ccncc2)n1 , thanks. < 5.00

pIC50 lookup needed for O=C1Nc2cc(CN3CCOCC3)ccc2CN1c1csc(-c2ccncc2)n1 , thanks. < 5.00

---

biological target: Cyclin-dependent kinase 5/CDK5 activator 1 (Homo sapiens, UniProt Q00535); experiment: Inhibition of human His-tagged p25/CDK5; type: protein-complex assay
Sequence (Q00535 whole entry): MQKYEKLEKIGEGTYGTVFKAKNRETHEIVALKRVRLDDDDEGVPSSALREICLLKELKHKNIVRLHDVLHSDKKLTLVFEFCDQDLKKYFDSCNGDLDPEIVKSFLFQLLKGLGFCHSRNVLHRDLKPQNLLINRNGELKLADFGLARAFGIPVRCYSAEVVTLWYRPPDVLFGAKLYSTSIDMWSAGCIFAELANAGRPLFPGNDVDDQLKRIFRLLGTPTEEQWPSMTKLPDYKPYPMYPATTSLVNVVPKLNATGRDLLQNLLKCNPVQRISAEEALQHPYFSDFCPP
Sequence (Q15078 whole entry, further chain): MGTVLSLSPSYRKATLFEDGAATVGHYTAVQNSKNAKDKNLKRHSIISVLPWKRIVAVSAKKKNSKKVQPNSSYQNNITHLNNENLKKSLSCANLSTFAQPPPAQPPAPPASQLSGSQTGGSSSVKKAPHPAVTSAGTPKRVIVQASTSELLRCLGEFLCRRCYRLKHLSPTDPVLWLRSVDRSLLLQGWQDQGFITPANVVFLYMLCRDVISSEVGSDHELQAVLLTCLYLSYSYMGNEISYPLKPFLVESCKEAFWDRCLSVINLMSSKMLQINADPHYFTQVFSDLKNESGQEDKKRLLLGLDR
pIC50: −log10 of the molar value.
readout name: pIC50

Check out these entries, answers already filled in.
CN1CCN(c2cccc(NC(=O)Nc3csc(-c4ccncc4)n3)n2)CC1 = 7.82
O=C1Nc2ccccc2CN1c1csc(-c2ccncc2)n1 = 7.10
O=C1Nc2cc(CN3CCOCC3)ccc2CN1c1csc(-c2ccncc2)n1 = 7.21

(1) CCc1cc(-c2nc(N3Cc4ccccc4NC3=O)cs2)ccn1
(2) O=C1Nc2ccccc2CN1c1nc(-c2ccccn2)cs1
(3) O=C1Nc2ccccc2CN1c1nc(-c2ccncc2)cs1
(4) O=C1Nc2cc(F)ccc2CN1c1csc(-c2ccncc2)n1
(5) O=C1Nc2ccccc2CN1c1nc(-c2cccnc2)cs1
Arrange the 5 compounds from largest to smallest pIC50. Give me the labels in the order the question wants. 4, 3, 5, 1, 2
(4: 7.80, 3: 7.11, 5: 6.40, 1: 6.13, 2: 5.13)

---

biological target: Cyclin-dependent kinase 5/CDK5 activator 1 (Homo sapiens); assay: Inhibition of human CDK5/p25 by HTRF assay; type: protein-complex assay
pIC50: −log10 of the molar value.
readout name: pIC50

O=C(Nc1ccccc1)Nc1csc(-c2ccncc2)n1 = 5.52

(a) Cc1cccc2c1CN(c1csc(-c3ccncc3)n1)C(=O)N2
(b) O=C1Nc2cccc(Cl)c2CN1c1csc(-c2ccncc2)n1
(c) O=C1Nc2ccccc2CN1c1csc(-c2ccncc2)n1
(d) O=C1Nc2ccccc2CN1c1nc(-c2ccncc2)ns1
Arrange the 4 compounds from largest to smallest pIC50. Give me the labels in the order the question wants. c, b, d, a

---

target: Mitogen-activated protein kinase 9 (Homo sapiens, UniProt P45984); assay: Inhibition of human JNK2
Sequence (P45984 whole entry): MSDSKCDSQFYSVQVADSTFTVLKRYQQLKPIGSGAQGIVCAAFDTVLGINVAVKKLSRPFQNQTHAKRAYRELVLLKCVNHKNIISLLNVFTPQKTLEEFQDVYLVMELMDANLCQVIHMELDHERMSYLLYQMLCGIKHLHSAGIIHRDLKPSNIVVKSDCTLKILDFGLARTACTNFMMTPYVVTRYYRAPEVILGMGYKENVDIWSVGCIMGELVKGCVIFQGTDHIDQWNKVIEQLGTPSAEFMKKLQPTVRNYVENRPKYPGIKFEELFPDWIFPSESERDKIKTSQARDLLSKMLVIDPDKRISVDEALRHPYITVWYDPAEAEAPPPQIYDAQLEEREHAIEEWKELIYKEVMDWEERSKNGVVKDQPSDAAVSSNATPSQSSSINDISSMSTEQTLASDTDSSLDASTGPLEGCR
Below, each entry is listed with its recorded IC50.

O=C1Nc2ccccc2CN1c1csc(-c2ccncc2)n1 = > 10 µM

IC50 lookup needed for O=C1Nc2cc(F)ccc2CN1c1csc(-c2ccncc2)n1 , thanks. > 10 µM

IC50 lookup needed for O=C1Nc2cc(CN3CCOCC3)ccc2CN1c1csc(-c2ccncc2)n1 , thanks. > 10 µM

---

target: Cyclin-dependent kinase 5/CDK5 activator 1 (Homo sapiens, UniProt Q00535); test: Inhibition of human CDK5/p25 by HTRF assay; assay type: protein-complex assay
pIC50: −log10 of the molar value.
readout name: pIC50

Check out these entries, answers already filled in.
O=C1Nc2cc(CN3CCOCC3)ccc2CN1c1csc(-c2ccncc2)n1 = 7.21
O=C1Nc2cc(-c3ccccc3)ccc2CN1c1csc(-c2ccncc2)n1 = 6.95
Cc1ccc2c(c1)CN(c1csc(-c3ccncc3)n1)C(=O)N2 = 6.78
CN1CCN(c2cccc3c2CN(c2csc(-c4ccncc4)n2)C(=O)N3)CC1 = 6.08
O=C1Nc2cccc(Br)c2CN1c1csc(-c2ccncc2)n1 = 6.64
O=C1Nc2cccc(F)c2CN1c1csc(-c2ccncc2)n1 = 6.62
O=c1[nH]c2ccccc2n1-c1csc(-c2ccncc2)n1 = 5.94
COc1cccc2c1CN(c1csc(-c3ccncc3)n1)C(=O)N2 = 6.44
O=C1Nc2ccccc2CN1c1nc(-c2ccncc2)cs1 = 7.11
O=C(Nc1ccccn1)Nc1csc(-c2ccncc2)n1 = 6.72

(I) O=C1Nc2cc(F)ccc2CN1c1csc(-c2ccncc2)n1
(II) O=C1Nc2ccc(F)cc2CN1c1csc(-c2ccncc2)n1
(III) O=C1Nc2cccc(CN3CCOCC3)c2CN1c1csc(-c2ccncc2)n1
(IV) CN1CCN(c2ccc3c(c2)CN(c2csc(-c4ccncc4)n2)C(=O)N3)CC1
(V) O=C1Nc2cc(Br)ccc2CN1c1csc(-c2ccncc2)n1
List the 5 entries from lowest pIC50 to highest pIC50 value. Give me the labels in the order the question wants. IV, III, II, V, I
(IV: 5.93, III: 6.55, II: 7.14, V: 7.42, I: 7.80)
